All figures here come from patent US20040053928A1.

Test: MIC of test compounds against various organisms
Format: cell-based
Details: against one or more of the above range of gram positive and gram negative bacteria
outcome_measure: MIC

Example results:
molecule	MIC
COc1ccc2nccc([C@@H](O)CN3CCC(NC/C=C/c4ccccc4[N+](=O)[O-])CC3)c2c1 [Example 54]	≤ 0.25 mg/L
CCOC(=O)C1CN(C(=O)Nc2ccnc3ccc(OC)cc23)CCC1NCC(=O)Nc1ccccc1 (racemic) [Example 5]	≤ 32 mg/L
COC(=O)C1(NCC(=O)Nc2ccccc2)CCN(C[C@H](O)c2ccnc3ccc(OC)cc23)CC1.O=C(O)C(=O)O.O=C(O)C(=O)O [Example 37]	≤ 32 mg/L
COc1ccc2nccc(NC(=O)N3CCC(NCCCc4ccco4)C(CO)C3)c2c1 (racemic) [Example 53]	≤ 2 mg/L
COc1ccc2nccc([C@@H](O)CN3CCC(CO)(NCC(=O)Nc4ccccc4)CC3)c2c1 [Example 38, dioxalate]	≤ 2 mg/L

IN: Any idea what its MIC is? The molecule is COc1ccc2nccc([C@@H](O)CN3CCC(NCC(=O)Nc4cc(F)cc(F)c4)CC3)c2c1 [Example 29, dioxalate]
OUT: ≤ 0.25 mg/L

IN: Any idea what its MIC is? The molecule is COc1ccc2nccc([C@@H](O)CN3CCC(NCC(=O)Nc4ccc(F)c([N+](=O)[O-])c4)CC3)c2c1 [Example 36]
OUT: ≤ 32 mg/L
